- System: Plasma testosterone concentrations
- procedure.details: Testosterone in vivo test
- condition.details: Rattus norvegicus, 2 h; male rats, oral; LHRH-analogue i.m. after one hour; plasma testosterone two hours after administration; 50% inhibition relative to placebo
quantity.measured: ED50 (mg/kg)

• Fc1ccc(-c2nc3cc(Cn4ccnc4)ccc3[nH]2)cc1 [Compound 142] = 2.5
• COn1c(-c2ccccc2)nc2ccc(Cn3ccnc3)cc21 [Compound 227] = 2.5
• COn1c(C)nc2ccc(C(c3ccccc3)n3ccnc3)cc21 (centres unmarked) [Compound 231] = 2.5

----------
- Tested on: Plasma testosterone concentrations
- procedure.details: Testosterone in vivo test
- condition.details: Rattus norvegicus, 2 h; male rats, oral; LHRH-analogue i.m. after one hour; plasma testosterone two hours after administration; 50% inhibition relative to placebo
quantity.measured: ED50

• CCCCCc1nc2cc(Cn3ccnc3)ccc2[nH]1 = < 2.5 mg/kg
• Cc1nc2cc(C(c3ccc(Cl)cc3Cl)n3ccnc3)ccc2[nH]1 (stereo not shown) = 10 mg/kg
• CCCCCc1nc2cc(C(c3ccccc3)n3ccnc3)ccc2[nH]1 (stereo not shown) = < 2.5 mg/kg
• CCC(c1ccc2[nH]c(C(F)(F)F)nc2c1)n1ccnc1 (stereo not shown) = < 2.5 mg/kg
• Cc1nc2cc(C(c3cccs3)n3ccnc3)ccc2[nH]1 (stereo not shown) = 2.5 mg/kg
• CCC(c1ccc2[nH]c(-c3ccccc3)nc2c1)n1ccnc1 (stereo not shown) = 2.5 mg/kg
• c1ccc2c(Cc3nc4cc(Cn5ccnc5)ccc4[nH]3)c[nH]c2c1 = 2.5 mg/kg
• Cc1nc2cc(C(C(C)C)n3ccnc3)ccc2n1C (stereo not shown) = 2.5 mg/kg
• Cc1ccc(-c2nc3cc(C(c4ccccc4)n4ccnc4)ccc3[nH]2)cc1 (stereo not shown) = < 2.5 mg/kg
• Cn1cnc2cc(C(c3ccccc3)n3ccnc3)ccc21 (stereo not shown) = 2.5 mg/kg

----------
- Test system: Plasma testosterone concentrations
- procedure.details: Testosterone in vivo test
- condition.details: Rattus norvegicus, 2 h; male rats, oral; LHRH-analogue i.m. after one hour; plasma testosterone two hours after administration; 50% inhibition relative to placebo
Reported ED50 is given for each of the following molecules.
quantity.measured: ED50

• COn1c(-c2ccc(F)cc2)nc2ccc(C(C)n3ccnc3)cc21 (centres unmarked) = 2.5 mg/kg
• Fc1ccc(-c2nc3cc(C(c4ccccc4)n4ccnc4)ccc3[nH]2)cc1 (centres unmarked) = < 2.5 mg/kg
• CC(C)C(c1ccc2[nH]c(C(F)(F)F)nc2c1)n1ccnc1 (centres unmarked) = < 2.5 mg/kg
• COc1ccc(-c2nc3cc(C(c4ccccc4)n4ccnc4)ccc3[nH]2)cc1 (centres unmarked) = < 2.5 mg/kg
• CC(c1ccc2[nH]c(C(F)F)nc2c1)n1ccnc1 (centres unmarked) = < 2.5 mg/kg

Ref: patent EP0260744B1
